Test system: VDR homodimer (NR concentration 270 nM)
TEST_NAME: PBM binding z-score (relative to random genomic background probes); higher = stronger binding; sequences stand for … in GC…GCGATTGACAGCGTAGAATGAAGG
Assignment: determine reported PBM binding z-score for the given sequences.
Answers are plain numbers.

ATATGTACGTTACATCCGGGTCATTCAGGCTATG 2.95
ACTATTAGTTGAGACGAGGGCGACCGATAGGTTG 0.337
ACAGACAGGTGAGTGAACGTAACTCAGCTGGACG -0.683

Lab note: next sequence to report on.
GET /value?item= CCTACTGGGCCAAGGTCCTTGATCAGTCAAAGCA &field=PBM binding z-score returns -0.774
